Listed here: items and their measured MIC.
# Test system: Aspergillus fumigatus
# test.method.notes: Antifungal activity against Aspergillus fumigatus NCIM 902 by serial plate dilution method
# Type: functional
# setup.conditions: Aspergillus fumigatus, NCIM 902

CCCc1nn2c(=O)c3c4c(sc3nc2s1)CCCC4	< 6.25 µg/mL
OC(Cn1cncn1)(Cn1cncn1)c1ccc(F)cc1F [FLUCONAZOLE]	< 6.25 µg/mL
O=c1c2c3c(sc2nc2sc(-c4ccc([N+](=O)[O-])cc4)nn12)CCCC3	> 100 µg/mL
O=c1c2c3c(sc2nc2sc(-c4cc(Cl)cc(Cl)c4)nn12)CCCC3	> 100 µg/mL
Nn1c(SCC(=O)c2ccc(O)c(O)c2)nc2sc3c(c2c1=O)CCCC3	> 100 µg/mL
CCc1nn2c(=O)c3c4c(sc3nc2s1)CCCC4	> 100 µg/mL
Cc1cccc(-c2nn3c(=O)c4c5c(sc4nc3s2)CCCC5)c1	12.5 µg/mL
Nn1c(SCC(=O)c2ccc(Cl)cc2)nc2sc3c(c2c1=O)CCCC3	> 100 µg/mL
Cc1nn2c(=O)c3c4c(sc3nc2s1)CCCC4	12.5 µg/mL
Nn1c(SCC(=O)c2cc3ccccc3oc2=O)nc2sc3c(c2c1=O)CCCC3	> 100 µg/mL

Sure, the documented MIC for COc1ccc(C(=O)CSc2nc3sc4c(c3c(=O)n2N)CCCC4)cc1 is 12.5 µg/mL

response.value for Nn1c(SCC(=O)c2ccccc2)nc2sc3c(c2c1=O)CCCC3 (field: MIC) = > 100 µg/mL

The values you see were collected from ChEMBL document CHEMBL1146350.
